Measured values drawn from ChEMBL document CHEMBL4007489 for this set.

experiment: Half life in Sprague-Dawley rat liver microsomes assessed as parent compound remaining at 0.5 uM in presence of NADPH by LC-MS/MS analysis; type: ADME, microsome
For each record, write down the corresponding half-life at 0.5 µM.
# value in h; strip the unit string

GET /values?readout=half-life at 0.5 µM&item= FC(F)(F)c1csc(NC(=S)Nc2ccc3ncnc(Nc4cccc(Cl)c4)c3c2)n1 0.367

GET /values?readout=half-life at 0.5 µM&item= Fc1cc(F)cc(NC(=S)Nc2ccc3ncnc(Nc4cccc(Cl)c4)c3c2)c1 2.32

###

assay: Half life in NMRI nu/nu mouse at 10 mg/kg, sc administered as single dose by LC-MS analysis; type: ADME, organism-based; conditions: in vivo
readout.kind: half-life (h)
# value in h; strip the unit string

GET /values?readout=half-life&item= FC(F)(F)c1csc(NC(=S)Nc2ccc3ncnc(Nc4cccc(Cl)c4)c3c2)n1 4.3

GET /values?readout=half-life&item= Fc1cc(F)cc(NC(=S)Nc2ccc3ncnc(Nc4cccc(Cl)c4)c3c2)c1 7.8
